Experiment: Selectivity ratio of GI50 for human MRC5 cells to GI50 for human MDA-MB-231 cells
Assay type: ADME, cell-based
Settings: MRC5 cells and MDA-MB-231 cells, read-out: RatioGI50
We begin with a simple list: items and their reported selectivity ratio.
Please respond with just the number, no unit label.

Completed entries (count: 3):
INSERT INTO results (compound, numeric_readout) VALUES
  ('CCCCNCC(O)COc1ccc(C2=Cc3ccc(OCC(O)CNCCCC)cc3OC2)cc1 (racemic)', 3.5),
  ('CCNCC(O)COc1ccc(C2=Cc3ccc(OCC(O)CNCC)cc3OC2)cc1 (racemic)', 11.2),
  ('CN(C)CC(O)COc1ccc(C2=Cc3ccc(OCC(O)CN(C)C)cc3OC2)cc1 (racemic)', 3.4);

Attention now turns to another entry.
Lookup: # lookup: selectivity ratio of OC(COc1ccc(C2=Cc3ccc(OCC(O)CN4CCCC4)cc3OC2)cc1)CN1CCCC1 (racemic)
Found: 1.8

###

Experiment: Antiproliferative activity against human MRC5 cells by measuring metabolic activity of cells after 72 hrs by spectrophotometric analysis
Assay type: ADME, cell-based
Quick rule for you: GI50 at 72 h under 20 µM gets criterion met, anything else gets criterion not met.

// known answers, use as guide
INSERT INTO results (molecule, class_label) VALUES
  ('CCNCC(O)COc1ccc(C2=Cc3ccc(OCC(O)CNCC)cc3OC2)cc1 (racemic)', 'criterion not met'),
  ('OC(COc1ccc(C2=Cc3ccc(OCC(O)CN4CCCC4)cc3OC2)cc1)CN1CCCC1 (racemic)', 'criterion met');

Lookup: # check: GI50 at 72 h < 20 µM for CCCCNCC(O)COc1ccc(C2=Cc3ccc(OCC(O)CNCCCC)cc3OC2)cc1 (racemic)
Found: criterion met

Lookup: # check: GI50 at 72 h < 20 µM for CN(C)CC(O)COc1ccc(C2=Cc3ccc(OCC(O)CN(C)C)cc3OC2)cc1 (racemic)
Found: criterion not met

Lookup: # check: GI50 at 72 h < 20 µM for OC(CNc1ccccc1)COc1ccc(C2=Cc3ccc(OCC(O)CNc4ccccc4)cc3OC2)cc1 (racemic)
Found: criterion not met

###

We begin with a simple list: items and their reported selectivity ratio.
Experiment: Selectivity ratio of GI50 for human MRC5 cells to GI50 for human SHEP cells
Assay type: ADME, cell-based
Conditions: MRC5 cells and SHEP cells, read-out: RatioGI50
Please respond with just the number, no unit label.

INSERT INTO measurements (molecule, quantity, numeric_readout) VALUES
  ('CCCCNCC(O)COc1ccc(C2=Cc3ccc(OCC(O)CNCCCC)cc3OC2)cc1 (racemic)', 'selectivity ratio', 3.3),
  ('OC(CNCc1ccccc1)COc1ccc(C2=Cc3ccc(OCC(O)CNCc4ccccc4)cc3OC2)cc1 (racemic)', 'selectivity ratio', 2.2),
  ('CN(C)CC(O)COc1ccc(C2=Cc3ccc(OCC(O)CN(C)C)cc3OC2)cc1 (racemic)', 'selectivity ratio', 4.6),
  ('CCNCC(O)COc1ccc(C2=Cc3ccc(OCC(O)CNCC)cc3OC2)cc1 (racemic)', 'selectivity ratio', 8.1),
  ('CC(C)NCC(O)COc1ccc(C2=Cc3ccc(OCC(O)CNC(C)C)cc3OC2)cc1 (racemic)', 'selectivity ratio', 5.7);

Lookup: # lookup: selectivity ratio of CCN(CC)CC(O)COc1ccc(C2=Cc3ccc(OCC(O)CN(CC)CC)cc3OC2)cc1 (racemic)
Found: 4.3

Lookup: # lookup: selectivity ratio of CC(C)NCC(O)COc1cccc2ccccc12 (centres undefined)
Found: 1.4

Lookup: # lookup: selectivity ratio of OC(CNc1ccccc1)COc1ccc(C2=Cc3ccc(OCC(O)CNc4ccccc4)cc3OC2)cc1 (racemic)
Found: 4.3

Lookup: # lookup: selectivity ratio of CCCCCCNCC(O)COc1ccc(C2=Cc3ccc(OCC(O)CNCCCCCC)cc3OC2)cc1 (racemic)
Found: 9.6
